// provenance: ChEMBL document CHEMBL1155055

Parameter: IC50. Scope: all listed entries.
Biological target: UniProt P15145
Sequence (P15145 whole entry): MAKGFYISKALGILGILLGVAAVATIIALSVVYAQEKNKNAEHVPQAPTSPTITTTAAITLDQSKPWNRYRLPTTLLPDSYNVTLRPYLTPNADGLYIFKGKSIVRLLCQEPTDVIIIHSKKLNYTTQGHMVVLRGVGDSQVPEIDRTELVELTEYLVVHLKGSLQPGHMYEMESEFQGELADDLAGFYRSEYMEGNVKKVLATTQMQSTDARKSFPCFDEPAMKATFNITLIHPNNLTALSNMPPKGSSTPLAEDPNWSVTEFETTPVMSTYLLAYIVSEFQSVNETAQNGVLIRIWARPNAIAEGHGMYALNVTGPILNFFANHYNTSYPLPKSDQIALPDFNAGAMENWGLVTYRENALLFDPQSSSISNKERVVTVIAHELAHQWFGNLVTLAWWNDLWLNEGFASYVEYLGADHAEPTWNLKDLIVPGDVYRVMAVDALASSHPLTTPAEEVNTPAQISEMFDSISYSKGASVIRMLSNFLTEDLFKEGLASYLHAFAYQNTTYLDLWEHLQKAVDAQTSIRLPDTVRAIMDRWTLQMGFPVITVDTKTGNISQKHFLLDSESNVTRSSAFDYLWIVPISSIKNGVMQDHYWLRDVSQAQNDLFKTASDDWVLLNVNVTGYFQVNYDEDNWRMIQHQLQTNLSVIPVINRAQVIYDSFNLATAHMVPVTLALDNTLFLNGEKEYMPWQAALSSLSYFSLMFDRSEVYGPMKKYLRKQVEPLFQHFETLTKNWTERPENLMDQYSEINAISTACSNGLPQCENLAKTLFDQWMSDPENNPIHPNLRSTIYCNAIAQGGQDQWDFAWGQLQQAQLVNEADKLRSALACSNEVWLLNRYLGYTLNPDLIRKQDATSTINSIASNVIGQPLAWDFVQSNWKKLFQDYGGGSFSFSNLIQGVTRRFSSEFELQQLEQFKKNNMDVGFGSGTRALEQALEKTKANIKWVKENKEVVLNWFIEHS
Outcome Measure: IC50 (µM)

>>> df
                            compound_string  result_number
0  COc1ccc(/C=C/C(=O)N[C@H](C)C(=O)Nc2nnc(-c3ccc(Cl)cc3)s2)cc1            135
1  COc1ccc(/C=C/C(=O)N[C@H](C)C(=O)Nc2nnc(-c3ccc(Br)cc3)s2)cc1            108
2  COc1ccc(-c2nnc(NC(=O)[C@@H](C)NC(=O)/C=C/c3ccccc3)s2)cc1           31.4
